# Minimal concentration causing complete inhibition of visible growth (MIC) listing for each entry below
tested on: Cladosporium cucumerinum; type: cell-based; settings: after three days, glucose-agar, pH~6.9-7.0
Express your answer in µg/mL, writing the number without its unit.

Example entries begin here.
CCC[CH2][Sn]([CH2]CCC)([CH2]CCC)[CH2]CCN(C)C.Cl [Bu3 Sn(CH2)3 NMe2 . HCl]; 5
C[N+](C)(C)CC[CH2][Sn]([c]1ccccc1)([c]1ccccc1)[c]1ccccc1.[I-]; 500
CCC[CH2][Sn]([CH2]CCC)([CH2]CCC)[CH2]CCOC(C)=O; 20
CCC[CH2][Sn]([CH3])([CH2]CCC)[CH2]CCNCCCN(C)C.Cl.Cl; 20
CCC[CH2][Sn]([CH2]CCC)([CH2]CCC)[O]C(C)=O [Bu3 SnOAc, reference compound]; 1

Report Minimal concentration causing complete inhibition of visible growth (MIC) for CCC[CH2][Sn]([CH2]CCC)([CH2]CCC)[CH2]CCN please.
5

Report Minimal concentration causing complete inhibition of visible growth (MIC) for CCC[CH2][Sn]([CH2]CCC)([CH2]CCC)[CH2]CCO please.
100

Report Minimal concentration causing complete inhibition of visible growth (MIC) for CCCC[CH2][Sn]([CH2]CCCC)([CH2]CCCC)[CH2]CC[N+](C)(C)C.[I-] please.
20

Report Minimal concentration causing complete inhibition of visible growth (MIC) for CCC[CH2][Sn]([CH3])([CH2]CCC)[CH2]CCNCCCN(C)C please.
50
